Value source: ChEMBL document CHEMBL5055685

Test: Intrinsic clearance in human liver microsomes
Format: ADME, Microsome
Settings: read-out: CLH

COMPOUND: CC(O)c1cn(CCNc2nonc2/C(=N/O)Nc2ccc(F)c(Br)c2)nn1 (configuration not stated)
microsomal CLint, µL/min/mg: 5.22
--
COMPOUND: OCCOCc1cn(CCNc2nonc2/C(=N/O)Nc2ccc(F)c(Br)c2)nn1
microsomal CLint, µL/min/mg: 30.1

* * *

pIC50: −log10 of the molar value.
Indoleamine 2,3-dioxygenase 2 (Homo sapiens, UniProt Q6ZQW0) measurements of pIC50, listed per entry.
Sequence (Q6ZQW0 whole entry): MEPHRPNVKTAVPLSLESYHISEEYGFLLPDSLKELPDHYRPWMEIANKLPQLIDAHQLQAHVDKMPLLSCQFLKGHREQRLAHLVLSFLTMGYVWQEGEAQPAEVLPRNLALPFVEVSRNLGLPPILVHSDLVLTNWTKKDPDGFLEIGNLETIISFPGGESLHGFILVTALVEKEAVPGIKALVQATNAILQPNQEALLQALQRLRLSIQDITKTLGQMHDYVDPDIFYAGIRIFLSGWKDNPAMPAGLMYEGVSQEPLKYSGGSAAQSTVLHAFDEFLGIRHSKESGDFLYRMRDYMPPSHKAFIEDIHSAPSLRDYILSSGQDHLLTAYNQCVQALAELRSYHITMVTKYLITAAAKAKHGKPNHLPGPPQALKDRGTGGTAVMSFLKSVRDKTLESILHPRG
OBSERVABLE: pIC50

COMPOUND: CC(C)(O)c1cn(CCNc2nonc2/C(=N/O)Nc2ccc(F)c(Br)c2)nn1
OBSERVED_RESULT: 6.14
//
COMPOUND: CC(C)(C)c1cn(CCNc2nonc2/C(=N/O)Nc2ccc(F)c(Br)c2)nn1
OBSERVED_RESULT: 5.73
//
COMPOUND: CC(O)c1cn(CCNc2nonc2/C(=N/O)Nc2ccc(F)c(Br)c2)nn1 (stereo not given)
OBSERVED_RESULT: 6.44
//
COMPOUND: OCCOCc1cn(CCNc2nonc2/C(=N/O)Nc2ccc(F)c(Br)c2)nn1
OBSERVED_RESULT: 6.84
//
COMPOUND: CC(C)(OCCO)c1cn(CCNc2nonc2/C(=N/O)Nc2ccc(F)c(Br)c2)nn1
OBSERVED_RESULT: 5.93

* * *

Each item that follows carries a reported inhibition.
Target: Indoleamine 2,3-dioxygenase 1 (Homo sapiens, UniProt P14902)
Sequence (P14902 whole entry, looked up): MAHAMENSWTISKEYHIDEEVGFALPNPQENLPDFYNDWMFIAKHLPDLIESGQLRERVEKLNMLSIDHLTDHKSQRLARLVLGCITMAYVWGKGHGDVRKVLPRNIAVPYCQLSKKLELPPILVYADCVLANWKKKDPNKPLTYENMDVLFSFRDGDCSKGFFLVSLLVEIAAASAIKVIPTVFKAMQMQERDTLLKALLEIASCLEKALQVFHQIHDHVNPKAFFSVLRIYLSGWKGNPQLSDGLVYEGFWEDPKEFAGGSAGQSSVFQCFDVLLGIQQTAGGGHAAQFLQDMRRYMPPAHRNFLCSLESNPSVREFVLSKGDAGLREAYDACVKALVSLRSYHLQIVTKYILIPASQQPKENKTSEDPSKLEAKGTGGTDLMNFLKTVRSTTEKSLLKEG
Assay: Inhibition of IDO1 (unknown origin) assessed as reduction in kynurenine formation using L-tryptophan as substrate by methylene blue reagent based assay relative to control
Parameters: concentration or dose not given beside the values
Details: concentration not given here
OBSERVABLE: inhibition (%)

STRUCTURE: Cc1ccc(-c2cn(CCNc3nonc3/C(=N/O)Nc3ccc(F)c(Br)c3)nn2)cc1
TARGET_OR_SYSTEM: Indoleamine 2,3-dioxygenase 1 (Homo sapiens, UniProt P14902)
OBSERVED_RESULT: 12
--
STRUCTURE: O/N=C(\Nc1ccc(F)c(Br)c1)c1nonc1NCCn1cc(-c2cccc(O)c2)nn1
TARGET_OR_SYSTEM: Indoleamine 2,3-dioxygenase 1 (Homo sapiens, UniProt P14902)
OBSERVED_RESULT: 38
--
STRUCTURE: O/N=C(\Nc1ccc(F)c(Br)c1)c1nonc1NCCn1cc(-c2ccccc2)nn1
TARGET_OR_SYSTEM: Indoleamine 2,3-dioxygenase 1 (Homo sapiens, UniProt P14902)
OBSERVED_RESULT: 17
--
STRUCTURE: Nc1cccc(-c2cn(CCNc3nonc3/C(=N/O)Nc3ccc(F)c(Br)c3)nn2)c1
TARGET_OR_SYSTEM: Indoleamine 2,3-dioxygenase 1 (Homo sapiens, UniProt P14902)
OBSERVED_RESULT: 7
--
STRUCTURE: O/N=C(\Nc1ccc(F)c(Br)c1)c1nonc1NCCn1cc(C2CC2)nn1
TARGET_OR_SYSTEM: Indoleamine 2,3-dioxygenase 1 (Homo sapiens, UniProt P14902)
OBSERVED_RESULT: 37
--
STRUCTURE: COc1ccc(-c2cn(CCNc3nonc3/C(=N/O)Nc3ccc(F)c(Br)c3)nn2)cc1
TARGET_OR_SYSTEM: Indoleamine 2,3-dioxygenase 1 (Homo sapiens, UniProt P14902)
OBSERVED_RESULT: 8
--
STRUCTURE: COCc1cn(CCNc2nonc2/C(=N/O)Nc2ccc(F)c(Br)c2)nn1
TARGET_OR_SYSTEM: Indoleamine 2,3-dioxygenase 1 (Homo sapiens, UniProt P14902)
OBSERVED_RESULT: 20.5

* * *

Experiment: Toxicity in rat assessed as maximum tolerated dose
Assay type: organism-based
Conditions: in vivo
Each item that follows carries a reported MTD.
OBSERVABLE: MTD (mg/kg)

COMPOUND: OCCOCc1cn(CCNc2nonc2/C(=N/O)Nc2ccc(F)c(Br)c2)nn1
OBSERVABLE: MTD
OBSERVED_RESULT: 2
--
COMPOUND: CC(O)c1cn(CCNc2nonc2/C(=N/O)Nc2ccc(F)c(Br)c2)nn1 (configuration not stated)
OBSERVABLE: MTD
OBSERVED_RESULT: 2

* * *

Each item that follows carries a reported fraction unbound.
Test: Protein binding in monkey plasma assessed as fraction unbound by equilibrium dialysis
Type: ADME, cell-free, Macaca mulatta
Settings: rhesus monkey

MOLECULE: CC(O)c1cn(CCNc2nonc2/C(=N/O)Nc2ccc(F)c(Br)c2)nn1 (configuration not stated)
fraction unbound: 0.0371
--
MOLECULE: OCCOCc1cn(CCNc2nonc2/C(=N/O)Nc2ccc(F)c(Br)c2)nn1
fraction unbound: 0.0763

* * *

Assay: Apparent permeability across apical to basolateral side in human Caco-2 cells assessed as drug recovery
Format: ADME, cell-based
Conditions: read-out: Drug recovery

MOLECULE: CC(O)c1cn(CCNc2nonc2/C(=N/O)Nc2ccc(F)c(Br)c2)nn1 (configuration not stated)
recovery: 95.5%

MOLECULE: OCCOCc1cn(CCNc2nonc2/C(=N/O)Nc2ccc(F)c(Br)c2)nn1
recovery: 91.1%

* * *

Assay: Efflux ratio of apparent permeability across basolateral to apical over apical to basolateral side in human Caco-2 cells
Type: ADME, cell-based
Each item that follows carries a reported efflux ratio.

COMPOUND: OCCOCc1cn(CCNc2nonc2/C(=N/O)Nc2ccc(F)c(Br)c2)nn1
efflux ratio: 6.4
//
COMPOUND: CC(O)c1cn(CCNc2nonc2/C(=N/O)Nc2ccc(F)c(Br)c2)nn1 (configuration not stated)
efflux ratio: 5.9

* * *

Each item that follows carries a reported half-life.
Assay: Half life in Sprague-Dawley rat at 50 mg/kg, po
Type: ADME, organism-based
Details: in vivo
OBSERVABLE: half-life

MOLECULE: OCCOCc1cn(CCNc2nonc2/C(=N/O)Nc2ccc(F)c(Br)c2)nn1
OBSERVABLE: half-life
OBSERVED_RESULT: 1.9 h
--
MOLECULE: CC(O)c1cn(CCNc2nonc2/C(=N/O)Nc2ccc(F)c(Br)c2)nn1 (configuration not stated)
OBSERVABLE: half-life
OBSERVED_RESULT: 1.3 h
